Values from patent US11702475B2

Measured Percent monomer, listed per entry.
test: Analytical size exclusion chromatography (percent monomer); assay type: physicochemical; conditions: NEM-conjugated cysteine variants; SEC, Abs280 monomer region 5.5-6 minutes vs oligomer region 4-5.3 minutes

molecule: A26C (conjugate, left off: small tags and cut ends) LPAPKNLVVSEVTEDSARLSWDDPWCFYESFLIQYQESEKVGEAIVLTVPGSERSYDLTGLKPGTEYTVSIYGVHNVYKDTNMRGLPLSAIFTT
value-units: %
Percent monomer: 95
--
molecule: N6C: cysteine variant of P54AR4-83v2 (printed SEQ ID NOS: 210 and 248); NEM and VC-MMAF conjugates (conjugate, NEM or vcMMAF conjugate; EGFR binding FN3 domain, NEM and VC-MMAF conjugates) MLPAPKCLVVSEVTEDSARLSWDDPWAFYESFLIQYQESEKVGEAIVLTVPGSERSYDLTGLKPGTEYTVSIYGVHNVYKDTNMRGLPLSAIFTT
value-units: %
Percent monomer: 94
--
molecule: D80C (conjugate, left off: small tags and cut ends) LPAPKNLVVSEVTEDSARLSWDDPWAFYESFLIQYQESEKVGEAIVLTVPGSERSYDLTGLKPGTEYTVSIYGVHNVYKCTNMRGLPLSAIFTT
value-units: %
Percent monomer: 79
